Where these numbers come from: ChEMBL document CHEMBL1150752

# Lookup of reported inhibition at 50 µg/mL keyed by entry
# target: Xanthine dehydrogenase/oxidase (Bos taurus, UniProt P80457)
# Sequence (P80457 whole entry): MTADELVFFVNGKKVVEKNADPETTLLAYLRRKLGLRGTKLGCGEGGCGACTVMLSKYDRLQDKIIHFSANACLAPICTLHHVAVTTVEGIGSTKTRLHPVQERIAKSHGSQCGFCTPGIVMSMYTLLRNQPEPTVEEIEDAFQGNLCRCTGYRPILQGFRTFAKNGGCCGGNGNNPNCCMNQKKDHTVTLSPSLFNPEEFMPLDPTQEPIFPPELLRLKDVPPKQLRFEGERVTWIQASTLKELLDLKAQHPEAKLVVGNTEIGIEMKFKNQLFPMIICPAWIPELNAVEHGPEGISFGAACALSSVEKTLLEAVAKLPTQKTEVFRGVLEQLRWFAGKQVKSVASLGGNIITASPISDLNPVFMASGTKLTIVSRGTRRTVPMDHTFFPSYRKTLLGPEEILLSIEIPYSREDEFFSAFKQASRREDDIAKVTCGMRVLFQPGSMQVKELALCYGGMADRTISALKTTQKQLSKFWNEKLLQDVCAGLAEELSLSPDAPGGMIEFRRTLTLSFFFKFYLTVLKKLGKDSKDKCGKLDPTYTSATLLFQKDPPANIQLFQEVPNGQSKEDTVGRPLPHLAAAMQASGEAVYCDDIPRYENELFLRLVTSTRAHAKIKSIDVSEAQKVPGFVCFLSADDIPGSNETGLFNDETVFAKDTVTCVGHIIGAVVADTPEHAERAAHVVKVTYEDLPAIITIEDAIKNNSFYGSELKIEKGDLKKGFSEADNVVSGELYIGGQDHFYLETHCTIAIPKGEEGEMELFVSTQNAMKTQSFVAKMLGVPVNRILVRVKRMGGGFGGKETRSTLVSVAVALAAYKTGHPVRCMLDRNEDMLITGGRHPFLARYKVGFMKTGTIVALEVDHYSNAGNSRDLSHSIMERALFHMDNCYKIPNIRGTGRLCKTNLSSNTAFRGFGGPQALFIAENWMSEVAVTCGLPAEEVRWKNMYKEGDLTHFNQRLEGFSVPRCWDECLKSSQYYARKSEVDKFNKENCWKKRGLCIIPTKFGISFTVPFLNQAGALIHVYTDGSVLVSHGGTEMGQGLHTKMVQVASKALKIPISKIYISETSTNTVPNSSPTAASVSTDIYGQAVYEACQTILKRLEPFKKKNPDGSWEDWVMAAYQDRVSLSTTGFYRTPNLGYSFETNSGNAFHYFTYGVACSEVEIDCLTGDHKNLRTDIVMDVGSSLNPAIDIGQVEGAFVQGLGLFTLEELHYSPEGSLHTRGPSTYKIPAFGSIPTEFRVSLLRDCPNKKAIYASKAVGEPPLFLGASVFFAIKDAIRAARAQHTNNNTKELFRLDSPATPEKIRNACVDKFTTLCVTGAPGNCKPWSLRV
# protocolDescription: Inhibition of cow milk xanthine oxidase at 50 ug/mL
# experimentalParameters: cattle
The reply should be a number in %, with the unit left off.

Recorded inhibition at 50 µg/mL, per entry:
>  <molecule>
COc1cc(-c2coc3cc(O[C@@H]4O[C@H](CO)[C@@H](O)[C@H](O)[C@H]4O)c(OC)c(O)c3c2=O)cc(O)c1OC [IRIDIN]

>  <resultNumber>
0

$$$$
>  <molecule>
C[C@@H]1O[C@@H](O[C@H]2C(=O)c3c(O)cc(O)cc3O[C@@H]2c2ccc(O)c(O)c2)[C@H](O)[C@H](O)[C@H]1O [ASTILBIN]

>  <resultNumber>
0

$$$$
>  <molecule>
COc1ccc(-c2cc(=O)c3c(O)cc(O[C@@H]4O[C@H](CO[C@@H]5O[C@@H](C)[C@H](O)[C@@H](O)[C@H]5O)[C@@H](O)[C@H](O)[C@H]4O)cc3o2)cc1O [DIOSMIN]

>  <resultNumber>
0

$$$$
>  <molecule>
O=c1c(O[C@@H]2O[C@@H](CO)[C@H](O)[C@H]2O)c(-c2ccc(O)cc2)oc2cc(O)cc(O)c12 [JUGLANIN]

>  <resultNumber>
0

$$$$
>  <molecule>
COc1cc(O)c2c(c1)O[C@H](c1ccc(O)cc1)CC2=O [SAKURANETIN]

>  <resultNumber>
0

$$$$

Provide inhibition at 50 µg/mL value for the following molecule: O=c1c(O)c(-c2cc(O)c(O)c(O)c2)oc2cc(O)ccc12 [ROBINETIN]
82.9

Provide only the value of recorded inhibition at 50 µg/mL for O=C1c2ccc(O)cc2O[C@H](c2ccc(O)c(O)c2)[C@H]1O [FUSTIN]
27.2

---

# target: Xanthine dehydrogenase/oxidase (Bos taurus, UniProt P80457)
# protocolDescription: Inhibition of cow milk xanthine oxidase at 50 ug/mL
# experimentalParameters: cattle
metricName: inhibition at 50 µg/mL (%)
Numeric answer only, unit % assumed.

Some compounds with recorded inhibition at 50 µg/mL:
>  <compound>
COc1ccc(-c2coc3cc(O)ccc3c2=O)cc1

>  <target>
Xanthine dehydrogenase/oxidase (Bos taurus, UniProt P80457)

>  <inhibition at 50 µg/mL (%)>
17.6

$$$$
>  <compound>
O=c1c(-c2ccc(O)cc2)coc2cc(O[C@@H]3O[C@H](CO)[C@@H](O)[C@H](O)[C@H]3O)ccc12

>  <target>
Xanthine dehydrogenase/oxidase (Bos taurus, UniProt P80457)

>  <inhibition at 50 µg/mL (%)>
0

$$$$
>  <compound>
COc1ccc(-c2cc(=O)c3c(O)cc(O[C@@H]4O[C@H](CO)[C@@H](O)[C@H](O)[C@H]4O)cc3o2)cc1

>  <target>
Xanthine dehydrogenase/oxidase (Bos taurus, UniProt P80457)

>  <inhibition at 50 µg/mL (%)>
0

$$$$
>  <compound>
COc1cc2oc(-c3ccc(O)cc3)cc(=O)c2c(O)c1OC

>  <target>
Xanthine dehydrogenase/oxidase (Bos taurus, UniProt P80457)

>  <inhibition at 50 µg/mL (%)>
0

$$$$
>  <compound>
COc1cc(-c2cc(=O)c3c(O)c(OC)c(OC)cc3o2)ccc1O

>  <target>
Xanthine dehydrogenase/oxidase (Bos taurus, UniProt P80457)

>  <inhibition at 50 µg/mL (%)>
1

$$$$
>  <compound>
COc1c(O)cc2oc(-c3ccc(O)cc3)c(OC)c(=O)c2c1O

>  <target>
Xanthine dehydrogenase/oxidase (Bos taurus, UniProt P80457)

>  <inhibition at 50 µg/mL (%)>
95

$$$$

Supply inhibition at 50 µg/mL value. Item: `O=C1C[C@@H](c2ccc(O)cc2)Oc2cc(O)ccc21`
100

Tell us which inhibition at 50 µg/mL value is on record for O=C1c2c(O)cc(O)cc2O[C@H](c2ccc(O)cc2)[C@H]1O [DIHYDROKAEMPFEROL]
66.9

Give the reported inhibition at 50 µg/mL for this compound. `COc1ccc(-c2cc(=O)c3c(O)c(OC)c(O)cc3o2)cc1`
32.1

---

# target: Xanthine dehydrogenase/oxidase (Bos taurus, UniProt P80457)
# protocolDescription: Inhibition of cow milk xanthine oxidase at 50 ug/mL
# experimentalParameters: cattle
Categories are assigned from the measured inhibition at 50 µg/mL using these intervals: 0 (below 0.3%), 1 (0.3% to below 50%), 2 (50% or more)

Completed entries (count: 5):
>  <compound>
O=c1c(-c2ccc(O[C@@H]3O[C@H](CO)[C@@H](O)[C@H](O)[C@H]3O)cc2)coc2cc(O)cc(O)c12 [SOPHORICOSIDE]

>  <classLabel>
1

$$$$
>  <compound>
CC(=O)Oc1ccc(-c2cc(=O)c3c(OC(C)=O)c(OC(C)=O)c(OC(C)=O)cc3o2)cc1

>  <classLabel>
0

$$$$
>  <compound>
COc1ccc([C@@H]2CC(=O)c3c(O)cc(O[C@@H]4O[C@H](CO)[C@@H](O)[C@H](O)[C@H]4O[C@@H]4O[C@@H](C)[C@H](O)[C@@H](O)[C@H]4O)cc3O2)cc1

>  <classLabel>
0

$$$$
>  <compound>
O=c1cc(-c2ccc(O)cc2)oc2cc(O[C@@H]3O[C@H](CO)[C@@H](O)[C@H](O)[C@H]3O)cc(O)c12

>  <classLabel>
1

$$$$
>  <compound>
COc1cc(-c2cc(=O)c3c(O)c(OC)c(OC)cc3o2)ccc1O[C@@H]1O[C@H](CO)[C@@H](O)[C@H](O)[C@H]1O

>  <classLabel>
0

$$$$

// return the class label for `COc1cc2oc(-c3ccc(O)c(O)c3)cc(=O)c2c(O)c1OC`
1

Sort `COc1cc2oc(-c3ccc(O)cc3)c(O)c(=O)c2c(O)c1[C@@H]1O[C@H](CO)[C@@H](O)[C@H](O)[C@H]1O` into one of the categories.
0

Please classify: `O=c1cc(-c2ccc(O)c(O)c2)oc2cc(O)c([C@@H]3O[C@H](CO)[C@@H](O)[C@H](O)[C@H]3O)c(O)c12`
1

Hi there! Could you help me figure out the category for `CC(=O)Oc1cc(OC(C)=O)c2c(=O)cc(-c3ccc(OC(C)=O)c(OC(C)=O)c3)oc2c1` please?
1

Bin this entry: `COc1cc(-c2cc(=O)c3c(O)cc(O)cc3o2)ccc1O`
2

Which bin should I file `COc1cc2oc(-c3ccccc3)cc(=O)c2c(OC)c1OC` under?
1

Into which category would you place `COc1ccc(-c2cc(=O)c3c(O)cc(O)cc3o2)cc1` ?
2

---

# target: Xanthine dehydrogenase/oxidase (Bos taurus, UniProt P80457)
# protocolDescription: Inhibition of cow milk xanthine oxidase at 50 ug/mL
# experimentalParameters: cattle
// reported inhibition at 50 µg/mL for each item listed
Express the result in % but write the number alone.

Use these answered entries as a reference point.
>  <compound>
O=c1cc(-c2ccc(O)c(O)c2)oc2cc(O[C@@H]3O[C@H](CO)[C@@H](O)[C@H](O)[C@H]3O)cc(O)c12 (single isomer, unassigned) [GALUTEOLIN]

>  <inhibition at 50 µg/mL [%]>
67.2

$$$$
>  <compound>
CC(C)=CCc1c(O[C@@H]2O[C@H](CO)[C@@H](O)[C@H](O)[C@H]2O)cc(O)c2c1O[C@H](c1ccc(O)cc1)[C@@H](O)C2=O [PHELLAMURIN]

>  <inhibition at 50 µg/mL [%]>
0

$$$$
>  <compound>
O=c1cc(-c2ccc(O)cc2)oc2cc(O)c(O)c(O)c12 [SCUTELLAREIN]

>  <inhibition at 50 µg/mL [%]>
67.3

$$$$
>  <compound>
O=c1c(-c2ccc(O)cc2)coc2cc(O)cc(O)c12 [GENISTEIN]

>  <inhibition at 50 µg/mL [%]>
0

$$$$
>  <compound>
COc1c(O)cc2occ(-c3ccc(O)cc3)c(=O)c2c1O [TECTORIGENIN]

>  <inhibition at 50 µg/mL [%]>
0

$$$$

Next compound, inhibition at 50 µg/mL to be filled in.
Check the records and state inhibition at 50 µg/mL for `COc1ccc(-c2cc(=O)c3c(O)cc(O[C@@H]4O[C@H](CO)[C@@H](O)[C@H](O)[C@H]4O)cc3o2)cc1O`
28.9

---

# target: Xanthine dehydrogenase/oxidase (Bos taurus)
# protocolDescription: Inhibition of cow milk xanthine oxidase at 50 ug/mL
# experimentalParameters: cattle
Returns T if the recorded inhibition at 50 µg/mL is greater than or equal to 20%, and F otherwise.

Examples with answers:
>  <compound>
O=c1c(-c2ccc(O)cc2)coc2cc(O[C@@H]3O[C@H](CO)[C@@H](O)[C@H](O)[C@H]3O)cc(O)c12 [GENISTIN]

>  <classLabel>
F

$$$$
>  <compound>
COc1ccc(-c2cc(=O)c3c(O)c([C@H]4O[C@H](CO)[C@@H](O)[C@H](O)[C@H]4O[C@H]4O[C@H](C)[C@@H](O)[C@H](O)[C@@H]4O)c(OC)cc3o2)cc1 [EMBININ]

>  <classLabel>
T

$$$$
>  <compound>
COc1cc(-c2coc3cc(O)c(OC)c(O)c3c2=O)cc(O)c1OC [IRIGENIN]

>  <classLabel>
F

$$$$
>  <compound>
COc1ccc(-c2cc(=O)c3c(O)cc(O[C@@H]4O[C@H](CO[C@@H]5O[C@@H](C)[C@H](O)[C@@H](O)[C@H]5O)[C@@H](O)[C@H](O)[C@H]4O)cc3o2)cc1 [ACACIIN]

>  <classLabel>
F

$$$$
>  <compound>
CC(=O)Oc1cc(OC(C)=O)c2c(=O)c(OC(C)=O)c(-c3cc(OC(C)=O)c(OC(C)=O)c(OC(C)=O)c3)oc2c1

>  <classLabel>
F

$$$$

Determine whether measured inhibition at 50 µg/mL meets or exceeds 20% for `O=C(O[C@H]1[C@H](Oc2c(-c3ccc(O)c(O)c3)oc3cc(O)cc(O)c3c2=O)O[C@H](CO)[C@@H](O)[C@@H]1O)c1cc(O)c(O)c(O)c1`
T

Dear colleague, could you confirm whether `O=c1c(O)c(-c2ccc(O)cc2)oc2cc(O[C@@H]3O[C@H](CO)[C@@H](O)[C@H](O)[C@H]3O)cc(O)c12` has inhibition at 50 µg/mL at or above 20%?
F

Given the entry COc1c(-c2ccc(O)c(O)c2)oc2cc(O)cc(O)c2c1=O [3-O-METHYLQUERCETIN] , answer whether its inhibition at 50 µg/mL meets or surpasses 20%.
T

Identify whether the reported inhibition at 50 µg/mL of the following compound is 20% or greater: C[C@@H]1O[C@@H](O[C@H]2[C@H](Oc3cc(O)c4c(=O)cc(-c5ccc(O)cc5)oc4c3)O[C@H](CO)[C@@H](O)[C@@H]2O)[C@H](O)[C@H](O)[C@H]1O [RHOIFOLIN]
F

Evaluate O=C(O)[C@H]1O[C@@H](Oc2cc3oc(-c4ccc(O)cc4)cc(=O)c3c(O)c2O)[C@H](O)[C@@H](O)[C@@H]1O [SCUTELLARIN] : inhibition at 50 µg/mL at minimum 20%?
F

For this compound, is measured inhibition at 50 µg/mL 20% or higher? `CC(=O)Oc1cc(OC(C)=O)c2c(=O)c(OC(C)=O)c(-c3ccc(OC(C)=O)c(OC(C)=O)c3)oc2c1`
F

Check if inhibition at 50 µg/mL >= 20% (inclusive). Item: `COc1cc2oc(-c3ccc(O[C@@H]4O[C@H](CO)[C@@H](O)[C@H](O)[C@H]4O)c(O)c3)cc(=O)c2c(O)c1OC`
F
